Reference source: patent US20260043020A1

# Subject Of Test: trypsin
# Run Description: monoclonal phage TRF ELISA
We begin with a simple list: items and their reported trypsin binding signal (FU).
The reply should contain only the number, in FU.

Q. Indicate its recorded trypsin binding signal (FU); the binder in question is KB_C10 (scFv, V domains shown) VH: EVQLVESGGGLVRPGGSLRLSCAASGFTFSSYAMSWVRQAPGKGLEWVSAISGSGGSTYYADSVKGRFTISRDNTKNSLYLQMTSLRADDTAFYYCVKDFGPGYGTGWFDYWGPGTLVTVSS VL: AVNWYQQLPGKAPKLLIYAAGPCPRILMRCKQDSDCLAGCVCGPNGFCGADSGVSDRFSGSKSGTSASLAITGLQAEDEGDYYCAAWDDSLNGLVFGGGTKVTVLG
A. 119000

Q. // Input: KB_B11 (scFv, V domains shown) VH: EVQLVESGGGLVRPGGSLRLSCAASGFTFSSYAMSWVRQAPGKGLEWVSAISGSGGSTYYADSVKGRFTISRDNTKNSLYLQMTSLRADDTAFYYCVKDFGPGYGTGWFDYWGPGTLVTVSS VL: TQPPSVSEAPRQRVTITCGSRPCPRILMRCKQDSDCLAGCVCGPNGFCGSHNWYQQLPGSSPTTVIYEDNQRPSGVPDRFSGSIDRSSNSASLTISGLKTEDEADYYCQSYDSSNHRVVFGGGTKLTVLG . Output its trypsin binding signal (FU) only.
A. 10300

Q. Identify the reported trypsin binding signal (FU) for the following entry. KB_A03 (scFv, V domains shown) VH: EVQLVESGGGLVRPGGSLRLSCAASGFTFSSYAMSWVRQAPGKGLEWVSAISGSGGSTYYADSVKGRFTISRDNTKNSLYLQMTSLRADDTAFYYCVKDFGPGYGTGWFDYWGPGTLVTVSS VL: AVNWYQQLPGKAPKLLINAADRCPRILMRCKQDSDCLAGCVCGPNGFCGTNSGVPDRFSGSSSGNTASLTITGAQAEDEADYYCNSRDSSGNNWVFGGGTKVTVLG
A. 28700

Q. Tell us which trypsin binding signal (FU) value is on record for KB_C08 (scFv, V domains shown) VH: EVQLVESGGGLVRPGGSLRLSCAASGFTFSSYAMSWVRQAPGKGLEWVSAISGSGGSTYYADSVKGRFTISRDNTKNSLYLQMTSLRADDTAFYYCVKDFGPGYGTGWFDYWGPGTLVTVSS VL: AVNWYQQLPGKAPKLLIYAAAVCPRILMRCKQDSDCLAGCVCGPNGFCGTRSGIPERFSGSKSGTSAFLAISGLRSEDEADYYCAAWDDSLSGVVFGGGTKLTVLG
A. 76800

Q. Indicate its recorded trypsin binding signal (FU); the binder in question is KB_B12 (scFv, V domains shown) VH: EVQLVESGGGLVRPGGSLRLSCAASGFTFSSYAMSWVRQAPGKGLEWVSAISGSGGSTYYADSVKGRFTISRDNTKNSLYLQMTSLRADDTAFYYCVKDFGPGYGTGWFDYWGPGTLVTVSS VL: TQPPSVSEAPRQRVTITCGERPCPRILMRCKQDSDCLAGCVCGPNGFCGANNWYQQLPGSSPTTVIYEDNQRPSGVPDRFSGSIDSSSNSASLTISGLKTEDEADYYCQSYDSSNQVFGGGTKVTVLG
A. 17400
